Test system: WI38 non-cancer cell line
Assay: MTT assay for cell viability, IC50 determination
Format: cell-based
Details: Homo sapiens, WI-38; WI38 non-cancer; 48 hours, MTT
Reported IC50 values for the following compounds.
Respond numerically; units are µM and should not be typed.

Cpd Smiles: Clc1ccccc1COc1nc2cc3c(cc2cc1CNCc1cn2c(n1)SCC2)CCC3
Observed Result: 25.1

Please supply the value of reported IC50 for the item CN(C)CCCn1c(N)c(-c2nc3ccccc3[nH]2)c2nc3ccccc3nc21
24

---

Reported pIC50 values for the following compounds.
System: HeLa cervical cancer cell line
Assay: MTT assay for cell viability, IC50 determination
Format: cell-based
Settings: Homo sapiens, HeLa, 48 h, HeLa; 48 hours, MTT; read-out: IC50
Method: Cells were plated in 96-well plates and treated with varying concentrations of a test compound for 48 hours, after which MTT dye, 3-(4,5-dimethylthiazol-2-yl)-2,5-diphenyltetrazolium bromide (Sigma), was added, and crystals solubilised 4 hours later using Solubilisation Reagent (10% SLS in 0.01 M HCl). Absorbencies were measured at 595 nm the following day using a BioTek microplate spectrophotometer (Winooski, Vt., USA) and IC50 curves were generated using GraphPad Prism.
In plain terms, pIC50 is the concentration in mol/L turned into minus its base-10 logarithm.

Field: example entries. Status: answers known.
Compound: Nc1c(-c2nc3ccccc3[nH]2)c2nc3ccccc3nc2n1CCCn1ccnc1
Measurement Name: pIC50
Observed Result: 5.14

Compound: Cc1cccc(CN2CCOc3c(cc(-c4ccc(C)s4)cc3OCC3CCCN(C)C3)C2)n1 (centres unmarked)
Measurement Name: pIC50
Observed Result: 4.84

Compound: CCCn1c(N)c(-c2nc3ccccc3n2C)c2nc3ccccc3nc21
Measurement Name: pIC50
Observed Result: 4.65

Please supply the value of reported pIC50 for the item CCn1c(N)c(-c2nc3ccccc3[nH]2)c2nc3ccccc3nc21
5.38

Please supply the value of reported pIC50 for the item CC(C)CCn1c(N)c(-c2nc3ccccc3[nH]2)c2nc3ccccc3nc21
5.20

Please supply the value of reported pIC50 for the item CNC(=O)[C@@H]1C[C@H](NCc2ccc(OC)c3ccccc23)CN1Cc1ccccc1
4.70

Please supply the value of reported pIC50 for the item CC(C)Cn1c(N)c(-c2nc3ccccc3[nH]2)c2nc3ccccc3nc21
5.17

Please supply the value of reported pIC50 for the item CCCCn1c(N)c(-c2nc3ccccc3[nH]2)c2nc3ccccc3nc21
5.08

---

Test system: HeLa cervical cancer cell line
Experiment: MTT assay for cell viability, IC50 determination
Assay type: cell-based
Settings: Homo sapiens, HeLa, HeLa cells (FIG. 3B); read-out: IC50 concentration (cell-killing effect)
Measurement Name: pIC50
In plain terms, pIC50 is the concentration in mol/L turned into minus its base-10 logarithm.

Please supply the value of reported pIC50 for the item c1ccc2[nH]cnc2c1 [Benzimidazole, benzimidazole, reference compound]
2.68

---

Tested on: HeLa cervical cancer cell line
Test: MTT assay for cell viability, IC50 determination
Format: cell-based
Conditions: Homo sapiens, HeLa; compound in salt form; read-out: IC50
Reported pIC50 values for the following compounds.
In plain terms, pIC50 is the concentration in mol/L turned into minus its base-10 logarithm.

Supply pIC50 measured with HeLa cervical cancer cell line for Cc1ccc(OC[C@@H](O)CNCc2ccc3c(c2)OCO3)cc1C .
4.27

---

Tested on: HeLa cervical cancer cell line
Assay: MTT assay for cell viability, IC50 determination
Format: cell-based
Settings: HeLa; 48 hours, MTT; read-out: IC50
Measurement Name: IC50 (µM)
Respond numerically; units are µM and should not be typed.

Please supply the value of reported IC50 for the item CN(C)CCCn1c(N)c(-c2nc3ccccc3[nH]2)c2nc3ccccc3nc21
8.77

---

Reported pIC50 values for the following molecules.
System: KYSE150 oesophageal cancer cell line
Experiment: MTT assay for cell viability, IC50 determination
Assay type: cell-based
Settings: Homo sapiens, KYSE-150; KYSE150; 48 hours, MTT
In plain terms, pIC50 is the concentration in mol/L turned into minus its base-10 logarithm.

Cpd Smiles: CN(C)CCCn1c(N)c(-c2nc3ccccc3[nH]2)c2nc3ccccc3nc21
Observed Result: 4.93

In the following, a different molecule is considered.
Please supply the value of reported pIC50 for the item Clc1ccccc1COc1nc2cc3c(cc2cc1CNCc1cn2c(n1)SCC2)CCC3
4.95

---

Reported IC50 values for the following compounds.
System: CaSki cervical cancer cell line
Test: MTT assay for cell viability, IC50 determination
Type: cell-based
Conditions: Homo sapiens, Ca-Ski, compound in salt form, read-out: IC50
Respond numerically; units are µM and should not be typed.

Cpd Smiles: CC(C)Cc1ccc(CNCc2cccnc2N2CCCN(C)CC2)s1
Target Desc: CaSki cervical cancer cell line
IC50 / µM: 27.4

Supply IC50 measured with CaSki cervical cancer cell line for Cc1cccc(N[C@@H](c2ccc(N(C)C)cc2)c2ccc3ccc(C)nc3c2O)n1 .
26.6

Supply IC50 measured with CaSki cervical cancer cell line for Cc1csc2nc(CNCc3cc4cc5c(cc4n(CC4CCCCC4)c3=O)CCC5)cn12 .
26.7

Supply IC50 measured with CaSki cervical cancer cell line for Cc1csc2nc(CNCc3cc4cc5c(cc4n(CCN4CCCCC4)c3=O)CCC5)cn12 .
26.9

Supply IC50 measured with CaSki cervical cancer cell line for Cc1ccc(OC[C@@H](O)CNCc2ccc3c(c2)OCO3)cc1C .
39.5

---

Test system: A2780 ovarian cancer cell line
Assay: MTT assay for cell viability, IC50 determination
Format: cell-based
Conditions: Homo sapiens, 48 hours
Measurement Name: pIC50
In plain terms, pIC50 is the concentration in mol/L turned into minus its base-10 logarithm.

Please supply the value of reported pIC50 for the item CN(C)CCCn1c(N)c(-c2nc3ccccc3[nH]2)c2nc3ccccc3nc21
5.24

---

System: HeLa cervical cancer cell line
Experiment: MTT assay for cell viability, IC50 determination
Type: cell-based
Details: Homo sapiens, HeLa, 48 h, HeLa; 48 hours, MTT; read-out: IC50
Threshold 9 µM. IC50 below it: Criterion met. IC50 at it or above: Criterion not met.

Example entries and their recorded answers appear below.
Compound: Clc1ccccc1COc1nc2cc3c(cc2cc1CNCc1cn2c(n1)SCC2)CCC3 [Compound IV]
Target Desc: HeLa cervical cancer cell line
Label Value: Criterion met
--
Compound: CN(C)CCCn1c(N)c(-c2nc3ccccc3[nH]2)c2nc3ccccc3nc21 [Compound A]
Target Desc: HeLa cervical cancer cell line
Label Value: Criterion not met
--
Compound: CCCn1c(N)c(-c2nc3ccccc3[nH]2)c2nc3ccccc3nc21 [Compound D]
Target Desc: HeLa cervical cancer cell line
Label Value: Criterion met

Confirm or reject: IC50 of Nc1c(-c2nc3ccccc3[nH]2)c2nc3ccccc3nc2n1CCCO [Compound H] lies strictly below 9 µM
Criterion met

Confirm or reject: IC50 of CCN(CC)CCCn1c(N)c(-c2nc3ccccc3[nH]2)c2nc3ccccc3nc21 [Compound B] lies strictly below 9 µM
Criterion met

Confirm or reject: IC50 of Cn1c(-c2c(N)n(CCCN3CCOCC3)c3nc4ccccc4nc23)nc2ccccc21 [Compound I] lies strictly below 9 µM
Criterion not met

---

Tested on: HeLa cervical cancer cell line
Test: MTT assay for cell viability, IC50 determination
Format: cell-based
Conditions: Homo sapiens, HeLa; compound in salt form; read-out: IC50
Measurement Name: pIC50
In plain terms, pIC50 is the concentration in mol/L turned into minus its base-10 logarithm.

Field: example entries. Status: answers known.
Cpd Smiles: Cc1csc2nc(CNCc3cc4cc5c(cc4n(CC4CCCCC4)c3=O)CCC5)cn12
pIC50: 4.67
//
Cpd Smiles: Cc1csc2nc(CNCc3cc4cc5c(cc4n(CCN4CCCCC4)c3=O)CCC5)cn12
pIC50: 4.48
//
Cpd Smiles: CC(C)Cc1ccc(CNCc2cccnc2N2CCCN(C)CC2)s1
pIC50: 4.64

In the following, a different molecule is considered.
Please supply the value of reported pIC50 for the item Cc1cccc(N[C@@H](c2ccc(N(C)C)cc2)c2ccc3ccc(C)nc3c2O)n1
4.91
